test: amyloid nucleation score (Sup35N fusion, yeast selection) (log enrichment); library NNK3; higher = more nucleation; inactive = no reads after selection;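 further: zero at mode of non-aggregating sequences after 7 days selection at 30°C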
Result Type: amyloid nucleation score

Answered cases to consult:
>>> df
              substance               result_type  value_measured
0  ITVVQANMSVWSTARVDMLD  amyloid nucleation score            1.12
1               TWDMSLT  amyloid nucleation score        inactive
2   VLTLIFFYFRISCICPFLL  amyloid nucleation score        inactive
3  AYWSFFPWGLYARLPGTPVV  amyloid nucleation score        inactive
4  MKDMSFTYLLFKSHCAWVSL  amyloid nucleation score        inactive
5     SNGLGLSLGNESANKEA  amyloid nucleation score        inactive
6  LQKGGNITCTVNHFMWVFAH  amyloid nucleation score           0.592
7    CALGEKLFSGSAYMVYPG  amyloid nucleation score        inactive

Ask: Consider the substance shown here: `LLGVWG` What is its recorded amyloid nucleation score?
Reply: 0.217

Ask: Quick one: `NINRFLDLSSWIGYQNGYKA`
Reply: inactive

Ask: Could you do the same for `VIFFSRSAYYKVISGRVI` , please?
Reply: inactive

Ask: `FLFSWEKFVCLCCILY` , same question.
Reply: 0.32

Ask: Next record, please: `SSTYSGCWLVLSIKRFVLIE`
Reply: inactive

Ask: Can you check `NRVMSVLF` next?
Reply: inactive
